- Tested on: MCF-7 (human breast cancer)
- PROTOCOL DETAILS: MTT assay, MCF-7 cells
- Format: cell-based
- MEASUREMENT PARAMETERS: 4 h in the dark; read-out: IC50 MCF-7 Dark
ASSAY ENDPOINT: IC50 (µM)
Answer in µM, number only, no unit symbol.

// field: IC50; key: "CC(=O)C(=C(C)O)C1=C(C=CC2=[N+](C)c3ccccc3C2(C)C)CCC1=CC=C1N(C)c2ccccc2C1(C)C.[Cl-]" ; value = 5.9

Source listed as patent US11661433B2.
